Exercise: for every item that follows, state its recorded shrunken log2 fold change.
System: Escherichia coli TOP10
Experiment: shrunken log2 fold change of peptide-encoding DNA abundance (4.5 h post-induction vs induction); higher = less antimicrobial activity (less host growth inhibition)
Conditions: time post-induction: 4.5 h; library: site-saturation at positions 5, 18, 19, 20
Number only, please.

Bench note: what shrunken log2 fold change did RRIRARPPRLPRPRPRPVGEPRP show?
0.482

Bench note: what shrunken log2 fold change did RRIRCRPPRLPRPRPRPAIRPRP show?
-0.0579

Bench note: what shrunken log2 fold change did RRIRFRPPRLPRPRPRPEKFPRP show?
0.012

Bench note: what shrunken log2 fold change did RRIRDRPPRLPRPRPRPAENPRP show?
0.224

----------
Tested on: Escherichia coli TOP10;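 further: peptides expressed intracellularly from a pBAD plasmid library in pooled LB shake-flask culture, induced with 0.3% L-arabinose, DNA abundance read by NGS, three biological replicates, DESeq2 with apeglm shrinkage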
Assay: shrunken log2 fold change of peptide-encoding DNA abundance (4.5 h post-induction vs induction); higher = less antimicrobial activity (less host growth inhibition)
Conditions: time post-induction: 4.5 h; library: site-saturation at positions 5, 18, 19, 20
Exercise: for every item that follows, state its recorded shrunken log2 fold change.
Number only, please.

Bench note: what shrunken log2 fold change did RRIRWRPPRLPRPRPRPCITPRP show?
-0.0175

Bench note: what shrunken log2 fold change did RRIRYRPPRLPRPRPRPWRDPRP show?
-0.0075

Bench note: what shrunken log2 fold change did RRIRDRPPRLPRPRPRPYLCPRP show?
-0.148

Bench note: what shrunken log2 fold change did RRIRYRPPRLPRPRPRPPSLPRP show?
0.289

Bench note: what shrunken log2 fold change did RRIRKRPPRLPRPRPRPCHQPRP show?
0.124

Bench note: what shrunken log2 fold change did RRIRSRPPRLPRPRPRPRHRPRP show?
0.121

Bench note: what shrunken log2 fold change did RRIRGRPPRLPRPRPRPINIPRP show?
0.00461

Bench note: what shrunken log2 fold change did RRIRCRPPRLPRPRPRPWAAPRP show?
-0.0941

Bench note: what shrunken log2 fold change did RRIRPRPPRLPRPRPRPESWPRP show?
1.54

Bench note: what shrunken log2 fold change did RRIRFRPPRLPRPRPRPMYGPRP show?
-0.36

Bench note: what shrunken log2 fold change did RRIRGRPPRLPRPRPRPIWIPRP show?
0.0517

Bench note: what shrunken log2 fold change did RRIRCRPPRLPRPRPRPPRAPRP show?
0.934

Bench note: what shrunken log2 fold change did RRIRVRPPRLPRPRPRPHMVPRP show?
-0.53

Bench note: what shrunken log2 fold change did RRIRCRPPRLPRPRPRPHHFPRP show?
-0.219

Bench note: what shrunken log2 fold change did RRIRYRPPRLPRPRPRPEPWPRP show?
0.00405

Bench note: what shrunken log2 fold change did RRIRIRPPRLPRPRPRPETGPRP show?
-0.322

Bench note: what shrunken log2 fold change did RRIRHRPPRLPRPRPRPRKGPRP show?
0.236

Bench note: what shrunken log2 fold change did RRIRERPPRLPRPRPRPLIMPRP show?
-0.781

Bench note: what shrunken log2 fold change did RRIRYRPPRLPRPRPRPRALPRP show?
0.0114

Bench note: what shrunken log2 fold change did RRIRWRPPRLPRPRPRPIRVPRP show?
0.0983

Bench note: what shrunken log2 fold change did RRIRTRPPRLPRPRPRPNSTPRP show?
-0.363

Bench note: what shrunken log2 fold change did RRIRSRPPRLPRPRPRPACSPRP show?
0.147

Bench note: what shrunken log2 fold change did RRIRGRPPRLPRPRPRPHWCPRP show?
0.00693

Bench note: what shrunken log2 fold change did RRIRVRPPRLPRPRPRPKFEPRP show?
0.12

Bench note: what shrunken log2 fold change did RRIRPRPPRLPRPRPRPKGAPRP show?
0.21

Bench note: what shrunken log2 fold change did RRIRKRPPRLPRPRPRPKPWPRP show?
0.526

Bench note: what shrunken log2 fold change did RRIRWRPPRLPRPRPRPICNPRP show?
-0.0133
